procedure_summary: Example 8: food effect on 4-CNAB pharmacokinetics, type 1 diabetes patients
Assay type: in vivo, human
reported_conditions: human, plasma, oral, period 0-3 hours post-dose; Breakfast 30 min post-dose; read-out: Plasma 4-CNAB tmax
measurement_kind: Tmax (min)

- chemical_structure: "O=C(O)CCCNC(=O)c1ccc(Cl)cc1O"
  measurement_kind: "Tmax"
  observed_measurement: 30

====

procedure_summary: Example 8: food effect on 4-CNAB pharmacokinetics, type 1 diabetes patients
Format: in vivo, human
reported_conditions: human, plasma, oral, period 0-20 minutes post-dose; Fasting

- chemical_structure: "O=C(O)CCCNC(=O)c1ccc(Cl)cc1O"
  Cmax / ng/mL: 20700

====

procedure_summary: Example 5: 4-CNAB plasma pharmacokinetics, single oral doses, healthy male volunteers
Assay type: in vivo, human
reported_conditions: male, human, plasma, po, with insulin, 100 Units/300 mg oral

- chemical_structure: "O=C(O)CCCNC(=O)c1ccc(Cl)cc1O"
  measurement_unit: "ng·h/mL"
  AUC(0-t): 8740

====

procedure_summary: Example 5: 4-CNAB plasma pharmacokinetics, single oral doses, healthy male volunteers
Type: in vivo, human
reported_conditions: male, human, plasma, po, 400 mg, 4-CNAB alone 400 mg oral; read-out: 4-CNAB MRT(0-inf)
measurement_kind: MRT inf (h)

- chemical_structure: "O=C(O)CCCNC(=O)c1ccc(Cl)cc1O"
  measurement_kind: "MRT inf"
  observed_measurement: 7.3

====

procedure_summary: Example 8: food effect on 4-CNAB pharmacokinetics, type 1 diabetes patients
Type: in vivo, human
reported_conditions: human, plasma, oral, period 0-30 minutes post-dose; Breakfast 30 min post-dose
measurement_kind: AUC

- chemical_structure: "O=C(O)CCCNC(=O)c1ccc(Cl)cc1O"
  measurement_kind: "AUC"
  observed_measurement: "5960 ng·h/mL"

====

procedure_summary: Example 5: 4-CNAB plasma pharmacokinetics, single oral doses, healthy male volunteers
Type: in vivo, human
reported_conditions: male, human, plasma, oral, 400 mg, Group/Treatment 1/1, 4-CNAB dose 400, alone; unaudited data
Procedure: A single center, double-blind, randomized placebo-controlled study undertaken in healthy human subjects in order to assess the safety and tolerability of escalating single oral doses of 4-CNAB capsules and insulin/4-CNAB capsules. […] The concentration of 4-CNAB in plasma was determined using a combination of liquid chromatography and Mass spectrometry assay known as LC-MS/MS. […] The eluting peaks were quantified by MS/MS. […]

- molecule: "O=C(O)CCCNC(=O)c1ccc(Cl)cc1O [4-CNAB]"
  AUC / ng·h/mL: 22400

====

procedure_summary: Example 5: 4-CNAB plasma pharmacokinetics, single oral doses, healthy male volunteers
Type: in vivo, human
reported_conditions: male, human, plasma, oral, 1400 mg, Group/Treatment 1/3, 4-CNAB dose 1400, alone; unaudited data
Protocol: A single center, double-blind, randomized placebo-controlled study undertaken in healthy human subjects in order to assess the safety and tolerability of escalating single oral doses of 4-CNAB capsules and insulin/4-CNAB capsules. […] The concentration of 4-CNAB in plasma was determined using a combination of liquid chromatography and Mass spectrometry assay known as LC-MS/MS. […] The eluting peaks were quantified by MS/MS. […]

- chemical_structure: "O=C(O)CCCNC(=O)c1ccc(Cl)cc1O"
  Cmax [µg/mL]: 97.5

====

procedure_summary: Example 5: 4-CNAB plasma pharmacokinetics, single oral doses, healthy male volunteers
Format: in vivo, human
reported_conditions: male, human, plasma, po, 800 mg, 4-CNAB alone 800 mg oral
measurement_kind: Cmax (ng/mL)

- chemical_structure: "O=C(O)CCCNC(=O)c1ccc(Cl)cc1O"
  measurement_kind: "Cmax"
  observed_measurement: 38000
